- Test system: Plasmodium berghei
- measurement.description: Screen against P. berghei liver stage (PbLuc), transformed with Luciferase, at 10uM
- Assay type: functional, HepG2
- condition.parameters: tested at 10 uM
Hit rate of the full screen: of about 69,000 compounds, about 8,600 (12%) showed an effect of 50% or more. The sample holds strong results, similar compounds and a random draw of the others, so the mix is not that of the screen.
The threshold is 30%. Values of INHIBITION beneath it are tagged rule met; values meeting or exceeding it are tagged rule not met.

Please indicate whether the reported INHIBITION of Cc1cn2c(n1)C(CNCC1=Cc3ccccc3OC1)CCC2 (centres undefined) is strictly below 30%.
rule not met

Please indicate whether the reported INHIBITION of Cc1nc(C)c(C(=O)NCCNc2ncccn2)s1 is strictly below 30%.
rule not met

Please indicate whether the reported INHIBITION of CS(=O)(=O)N1CC2(CCN(CC3CC3)C2)Cc2ccccc21 (centres undefined) is strictly below 30%.
rule met

Please indicate whether the reported INHIBITION of Cc1ccc(C(=O)N2CCOCC3(CCN(C4CCOCC4)C3)C2)o1 (centres undefined) is strictly below 30%.
rule met

Please indicate whether the reported INHIBITION of CS(=O)(=O)N1CC2(CCCN(CC3CC3)C2)Cc2ccccc21 (centres undefined) is strictly below 30%.
rule not met

Please indicate whether the reported INHIBITION of NC(=O)CC1CCCCN1C(=O)c1cccc(C(F)(F)F)c1 (centres undefined) is strictly below 30%.
rule not met

Please indicate whether the reported INHIBITION of CS(=O)(=O)N1CC2(CCN(C3CCCCC3)C2)Cc2ccccc21 (centres undefined) is strictly below 30%.
rule not met

Please indicate whether the reported INHIBITION of CO[C@H]1CCN(S(=O)(=O)c2cccs2)[C@H]1Cc1ccncc1 is strictly below 30%.
rule met

Please indicate whether the reported INHIBITION of Cc1cc(C)n(CC2CCCN2C(=O)c2cccc(C#N)c2)n1 (centres undefined) is strictly below 30%.
rule met

Please indicate whether the reported INHIBITION of CS(=O)(=O)Nc1ccn(Cc2cccc(F)c2)n1 is strictly below 30%.
rule not met

Please indicate whether the reported INHIBITION of CC(C)NC(=O)c1cccc(NC(=O)CCCc2nc(C(C)C)no2)c1 is strictly below 30%.
rule met

Please indicate whether the reported INHIBITION of CC(C)c1noc(C[S+]([O-])CC(=O)Nc2ccc(F)c(F)c2)n1 (centres undefined) is strictly below 30%.
rule not met

Please indicate whether the reported INHIBITION of Cc1nc(C)n(CC2CCCN2CCOc2cccc(F)c2)n1 (centres undefined) is strictly below 30%.
rule not met

Please indicate whether the reported INHIBITION of CNC(=O)CCN1CCC(c2nnc(Cn3cccn3)n2C2CC2)CC1 is strictly below 30%.
rule met

Please indicate whether the reported INHIBITION of CC(C)c1noc(CCC(=O)Nc2cc(F)ccc2F)n1 is strictly below 30%.
rule not met

Please indicate whether the reported INHIBITION of CC(C)c1noc(CN2CCN(C(=O)c3cc(Cl)ccc3F)CC2)n1 is strictly below 30%.
rule met

Please indicate whether the reported INHIBITION of O=S(=O)(c1cccs1)N1CC[C@@H](O)[C@@H]1Cc1ccncc1 is strictly below 30%.
rule not met

Please indicate whether the reported INHIBITION of CS(=O)(=O)N1CC2(CCN(CC3CCCCC3)C2)Cc2ccccc21 (centres undefined) is strictly below 30%.
rule not met

Please indicate whether the reported INHIBITION of CC(C)c1noc(C[S+]([O-])CC(=O)Nc2cc(F)ccc2F)n1 (centres undefined) is strictly below 30%.
rule not met

Please indicate whether the reported INHIBITION of Cc1noc(C2CCCN(Cn3cc(Cl)cn3)C2)n1 (centres undefined) is strictly below 30%.
rule met

Please indicate whether the reported INHIBITION of COc1ccc2c(C)c(C(=O)NC3CCOCC3)oc2c1 is strictly below 30%.
rule met

Please indicate whether the reported INHIBITION of CC(C)c1noc(CCCC(=O)Nc2cccc(F)c2)n1 is strictly below 30%.
rule met

Please indicate whether the reported INHIBITION of CC(NCC1=Cc2cc(Cl)ccc2OC1)c1nnc2n1CCCC2 (centres undefined) is strictly below 30%.
rule met
